These measurements were taken from ChEMBL document CHEMBL1134061.

System under test: 3-hydroxy-3-methylglutaryl-coenzyme A reductase (Rattus norvegicus)
Procedure text: In vivo hepatic cholesterol synthesis inhibitory activity in male Sprague-Dawley rat after oral administration at a concentration of 0.2 mg/kg
Format: functional, organism-based
Design: dose 0.2 mg/kg
Could you please report measured inhibition for the items listed next?

Molecule: CC(C)c1nc2onc(-c3ccccc3)c2c(-c2ccc(F)cc2)c1/C=C/[C@@H](O)C[C@@H](O)CC(=O)O
inhibition: 33.7%

Molecule: Cc1nn(C)c2nc(C(C)C)c(/C=C/[C@@H](O)C[C@@H](O)CC(=O)O)c(-c3ccc(F)cc3)c12
inhibition: 41.1%

Molecule: CC[C@H](C)C(=O)O[C@H]1C[C@H](O)C=C2C=C[C@H](C)[C@H](CC[C@@H](O)C[C@@H](O)CC(=O)O)[C@H]21 [PRAVASTATIN SODIUM]
inhibition: 35.4%

Molecule: O=C(O)C[C@H](O)C[C@H](O)/C=C/c1c(C2CC2)nc2sccc2c1-c1ccc(F)cc1
inhibition: 38.1%

Molecule: Cc1nn(C(C)(C)C)c2nc(C(C)C)c(/C=C/[C@@H](O)C[C@@H](O)CC(=O)O)c(-c3ccc(F)cc3)c12
inhibition: 51.8%

Below are 3 molecules. Give each one its inhibition.
1. CC(C)c1cc2nc(C3CC3)c(/C=C/[C@@H](O)C[C@@H](O)CC(=O)O)c(-c3ccc(F)cc3)n2n1
2. Cc1nn(Cc2ccccc2)c2nc(C(C)C)c(/C=C/[C@@H](O)C[C@@H](O)CC(=O)O)c(-c3ccc(F)cc3)c12
3. Cc1nn(C(C)(C)C)c2nc(C3CC3)c(/C=C/[C@@H](O)C[C@@H](O)CC(=O)O)c(-c3ccc(F)cc3)c12

A:
21.8%
16.4%
4.5%

---

Give measured Relative potency for each item. Keep answers brief.
System under test: 3-hydroxy-3-methylglutaryl-coenzyme A reductase (Homo sapiens) (UniProt P04035)
Sequence (P04035 whole entry): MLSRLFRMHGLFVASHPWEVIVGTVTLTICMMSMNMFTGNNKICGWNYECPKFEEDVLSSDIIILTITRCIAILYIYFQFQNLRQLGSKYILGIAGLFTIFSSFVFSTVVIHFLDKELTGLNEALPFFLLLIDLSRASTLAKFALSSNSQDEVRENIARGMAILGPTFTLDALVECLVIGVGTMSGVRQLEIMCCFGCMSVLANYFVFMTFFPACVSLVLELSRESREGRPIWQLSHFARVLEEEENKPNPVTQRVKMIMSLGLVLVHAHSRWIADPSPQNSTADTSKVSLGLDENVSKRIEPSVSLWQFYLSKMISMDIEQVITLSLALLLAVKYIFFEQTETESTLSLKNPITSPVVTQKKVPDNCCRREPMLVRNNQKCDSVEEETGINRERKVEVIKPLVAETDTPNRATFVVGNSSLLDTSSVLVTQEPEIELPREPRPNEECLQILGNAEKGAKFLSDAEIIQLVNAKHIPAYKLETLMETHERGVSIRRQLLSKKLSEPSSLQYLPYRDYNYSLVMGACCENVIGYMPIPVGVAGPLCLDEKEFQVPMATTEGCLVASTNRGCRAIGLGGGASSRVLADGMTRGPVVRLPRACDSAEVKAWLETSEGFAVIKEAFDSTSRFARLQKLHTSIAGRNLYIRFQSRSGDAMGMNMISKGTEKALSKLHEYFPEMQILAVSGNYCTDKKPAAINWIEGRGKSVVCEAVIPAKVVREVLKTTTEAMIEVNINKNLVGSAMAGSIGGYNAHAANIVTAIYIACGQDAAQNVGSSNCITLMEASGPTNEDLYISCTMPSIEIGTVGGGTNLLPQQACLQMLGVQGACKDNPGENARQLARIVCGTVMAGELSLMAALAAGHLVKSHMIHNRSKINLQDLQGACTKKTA
Procedure text: In vitro HMG-CoA reductase inhibitory activity required to inhibit cellular steroidgenesis in Hep G2 cells (human hepatoma cell line) with pravastatin as reference compound
Type: cell-based
Measurement setup: HepG2

Some solved entries appear below for comparison.
Chemical structure: Cc1nn(C)c2nc(C3CC3)c(/C=C/[C@@H](O)C[C@@H](O)CC(=O)O)c(-c3ccc(F)cc3)c12
Measured value: 118
--
Chemical structure: O=C(O)C[C@H](O)C[C@H](O)/C=C/c1c(C2CC2)nc2sc3c(c2c1-c1ccc(F)cc1)CCC3
Measured value: 60
--
Chemical structure: CC(C)c1nc2c3c(nn2c(-c2ccc(F)cc2)c1/C=C/[C@@H](O)C[C@@H](O)CC(=O)O)CCCC3
Measured value: 1
--
Chemical structure: CC(C)c1nc2sc3c(c2c(-c2ccc(F)cc2)c1/C=C/[C@@H](O)C[C@@H](O)CC(=O)O)CCCC3
Measured value: 19
--
Chemical structure: CC(C)c1nc2c(c(-c3ccccc3)nn2C)c(-c2ccc(F)cc2)c1/C=C/[C@@H](O)C[C@@H](O)CC(=O)O
Measured value: 6
--
Chemical structure: CC(C)c1nc2cc(-c3ccco3)nn2c(-c2ccc(F)cc2)c1/C=C/[C@@H](O)C[C@@H](O)CC(=O)O
Measured value: < 1
--
Chemical structure: CC(C)c1cc2c(-c3ccc(F)cc3)c(/C=C/[C@@H](O)C[C@@H](O)CC(=O)O)c(C(C)C)nc2s1
Measured value: 62

Q: Can you look up the measured Relative potency of CC(C)(C)n1nc(C2CC2)c2c(-c3ccc(F)cc3)c(/C=C/[C@@H](O)C[C@@H](O)CC(=O)O)c(C3CC3)nc21 for me?
A: 2
